test system: E31 (patient-derived glioblastoma stem cells of proneural subtype); experiment: surviving fraction (nuclei count normalised to DMSO); higher = more cells surviving (less toxic); details: 1000 nM; exposure time: 72 h;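 note: nuclei counted by high-content imaging of Hoechst-stained cells in laminin-coated 384-well plates, relative to 0.1% DMSO vehicle wells, with staurosporine as cell-death control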
Respond with 1 (yes) for surviving fraction values of 0.3 and above, 0 (no) for values below.

Solved entries:
[
  {
    "Molecule": "Nc1nc(Cl)nc2c1ncn2[C@@H]1O[C@H](CO)[C@@H](O)[C@@H]1F",
    "Group": "0 (no)"
  },
  {
    "Molecule": "COc1cc([C@@H]2c3cc4c(cc3[C@@H](O[C@@H]3O[C@@H]5CO[C@@H](c6cccs6)O[C@H]5[C@H](O)[C@H]3O)[C@H]3COC(=O)[C@H]23)OCO4)cc(OC)c1O [Teniposide]",
    "Group": "0 (no)"
  },
  {
    "Molecule": "COC(=O)C1=C(C)NC(C)=C(C(=O)OCC(C)C)C1c1ccccc1[N+](=O)[O-] (configuration not stated)",
    "Group": "1 (yes)"
  },
  {
    "Molecule": "c1ccc2c(c1)[I+]c1ccccc1-2 [Diphenyleneiodonium chloride]",
    "Group": "1 (yes)"
  },
  {
    "Molecule": "S=c1[nH]cnc2nc[nH]c12",
    "Group": "1 (yes)"
  },
  {
    "Molecule": "Cc1ccc(/C=N/NC(=O)c2n[nH]c3c2CCCC3)cc1",
    "Group": "0 (no)"
  }
]

Q: Is the recorded value of surviving fraction equal to or greater than 0.3 for this molecule? C/C=C(\C)C(=O)N[C@@H](c1ccccc1)[C@@H](O)C(=O)O[C@H]1C[C@@]2(O)[C@@H](OC(=O)c3ccccc3)[C@@H]3[C@]4(OC(C)=O)CO[C@@H]4C[C@H](O)[C@@]3(C)C(=O)[C@H](OC(C)=O)C(=C1C)C2(C)C
Result: 0 (no)
